# System: CAKI-1 renal
# assayMethodText: NCI-60 one-dose screen, 48 h
# settings: 10 µM unless noted
About 83,000 compounds went through this panel and 20% of them were active in at least one assay; those are over-represented in the sample as a whole. Calls of active or inactive are those of the source. Rule for the calls: active = growth percent below 10; inactive = the rest.
Outcome codes: yes for active, no for inactive

[
  {
    "compound": "CCCCCCCCCCCCCCCCNC(=O)OC(C)C",
    "labelValue": "no"
  },
  {
    "compound": "COc1ccc(-c2nc(/C=N/Nc3cc(C)nc4ccc(Cl)cc34)c(C)o2)cc1",
    "labelValue": "yes"
  },
  {
    "compound": "Clc1ccc(-c2nc3ccccc3s2)cc1Cl",
    "labelValue": "no"
  },
  {
    "compound": "CN(C)c1nc2c(N)ncnc2n1C1OC(CO)C(O)C1O (stereo unspecified)",
    "labelValue": "no"
  },
  {
    "compound": "COc1ccc2c(c1)NC1=C(C(=O)OC1)C2c1cc(OC)c2c(c1)OCO2 (stereo unspecified)",
    "labelValue": "no"
  },
  {
    "compound": "CC(C)(C)NCCC(O)c1cc2c(Cl)cc(Cl)cc2c2cc(C(F)(F)F)ccc12 (stereo unspecified)",
    "labelValue": "yes"
  },
  {
    "compound": "N#C/C(=C1C=C/C(=N/O)C(Cl)=C/1)c1ccc(Cl)cc1",
    "labelValue": "no"
  },
  {
    "compound": "Cc1cc(N/N=C/c2nc(-c3ccc(Br)cc3)oc2C)c2cc(Br)ccc2n1",
    "labelValue": "no"
  },
  {
    "compound": "C=C[C@@H]1C[C@H](O)Cc2cc(F)ccc2N1",
    "labelValue": "no"
  },
  {
    "compound": "O=S(=O)(NCCCNc1nccc(-n2ccc3cccnc32)n1)c1ccc(Br)cc1",
    "labelValue": "no"
  },
  {
    "compound": "COc1cc(/C=C/c2cc(/C=C/c3ccc(O)c(OC)c3)n(C(N)=O)n2)ccc1O",
    "labelValue": "no"
  }
]

====

Listed compounds paired with reported growth
# System: K-562 leukemia
# assayMethodText: NCI-60 one-dose screen, 48 h (100 = growth as untreated, 0 = no growth, -100 = all killed)
# settings: 10 µM unless noted
Compounds without any hit were thinned out: in the full panel of roughly 83,000, 20% have a hit. The source made the active and inactive calls. The calls were made as follows: active = growth percent below 10; inactive = the rest.

[
  {
    "compound": "O=S(=O)(NCCCNc1nccc(-n2ccc3cccnc32)n1)c1ccc(Br)cc1",
    "growth": "101% (inactive)"
  },
  {
    "compound": "O=[N+]([O-])c1ccc(OCCCOc2ccccc2)cc1",
    "growth": "99% (inactive)"
  },
  {
    "compound": "CCN(CC)CCC(CNc1ccnc2cc(Cl)ccc12)c1ccccc1 (stereo not given)",
    "growth": "2.5% (active)"
  },
  {
    "compound": "O=c1[nH]c(Nc2ccc(S(=O)(=O)O)cc2)nc2nc(Nc3ccc(NC(=S)Nc4ccccc4)cc3)nc(-c3ccc(O)cc3O)c12",
    "growth": "101% (inactive)"
  },
  {
    "compound": "COc1ccc(Nc2ncccc2C(=O)NCc2cn(Cc3cccc(Oc4ccccc4)c3)nn2)cc1",
    "growth": "33.6% (inactive)"
  },
  {
    "compound": "CCN(CC)c1ccc(C(=N)c2ccc(N(CC)CC)cc2)cc1",
    "growth": "-4.1% (active)"
  },
  {
    "compound": "COc1ccc(-c2cc3c(OC)c(OC)c(OC)cc3oc2=O)cc1",
    "growth": "26.1% (inactive)"
  },
  {
    "compound": "COc1ccc(NC(=O)c2c(Nc3ccc(OC)cc3OC)n[nH]c2N)c(OC)c1",
    "growth": "95.6% (inactive)"
  },
  {
    "compound": "CCN(CC)CCC(CNc1ccnc2cc(Cl)ccc12)c1ccc(Cl)cc1 (stereo not given)",
    "growth": "-53.9% (active)"
  },
  {
    "compound": "Brc1cccc(-c2cc(-c3ccc4nccnc4c3)[nH]n2)c1",
    "growth": "11.9% [25 µM] (inactive)"
  }
]

====

# Tested on: HCT-116 colon
# assayMethodText: NCI-60 one-dose screen, 48 h (100 = growth as untreated, 0 = no growth, -100 = all killed)
# settings: 10 µM unless noted
About 83,000 compounds went through this panel and 20% of them were active in at least one assay; those are over-represented in the sample as a whole.
Listed below: growth values for each entry.

[
  {
    "molecule": "Cc1ccc(S(=O)(=O)n2cc(C(=O)C(=O)Nc3ccncc3)c3ccccc32)cc1",
    "unit": "%",
    "growth": 17.5
  },
  {
    "molecule": "Cc1ccc(Nc2nnc(-c3ccc(Cl)cc3)o2)c(C)c1",
    "unit": "%",
    "growth": 83.9
  },
  {
    "molecule": "N/C(=N\\C(N)=N\\c1nc2ccccc2s1)c1cccc(Br)c1",
    "unit": "%",
    "growth": 61.2
  },
  {
    "molecule": "Cc1cc(N/N=C/c2nc(-c3ccc(Br)cc3)oc2C)c2cc(Cl)ccc2n1",
    "unit": "%",
    "growth": -16.5
  },
  {
    "molecule": "O=C(N/N=C/C=C\\c1ccccc1)C(=O)N/N=C/C=C/c1ccccc1",
    "unit": "%",
    "growth": 104
  },
  {
    "molecule": "CCN(CC)CCCC(C)Nc1c2ccc(Cl)cc2nc2cc(OC)c(OC)cc12 (stereo not given)",
    "unit": "%",
    "growth": -42.5
  },
  {
    "molecule": "Nc1nc(-c2ccccc2)c(CCCOc2ccc(NC(=O)CBr)cc2)c(=O)[nH]1",
    "unit": "%",
    "growth": 103
  },
  {
    "molecule": "CCN1CCN(c2nc(NNC(=O)c3ccccc3)nc(N3CCN(C(c4ccccc4)c4ccccc4)CC3)n2)CC1",
    "unit": "%",
    "growth": 20.2
  },
  {
    "molecule": "COc1ccc2c(c1)[nH]c(=O)c1c3cc(OC)ccc3cn21",
    "unit": "%",
    "growth": -89
  },
  {
    "molecule": "O=C1/C(=C/c2ccccc2)Oc2ccc(O)c(I)c21",
    "unit": "%",
    "growth": 98.2
  }
]

====

# System: PC-3 prostate
# assayMethodText: NCI-60 one-dose screen, 48 h (100 = growth as untreated, 0 = no growth, -100 = all killed)
# settings: 10 µM unless noted
This is part of a sample that, as a whole, favours compounds with a hit. Of some 83,000 tested, about 20% had one in any assay.

[
  {
    "compound": "O=C(O)/C=C/C(=O)c1ccc(Cl)cc1",
    "growth (%)": 106
  },
  {
    "compound": "OCc1ncc(-c2ccccc2)s1",
    "growth (%)": 89.4
  },
  {
    "compound": "COc1ccc(N2CCN(Cc3cc(C(=O)/C=C/c4c[nH]c5ccccc45)ccc3O)CC2)cc1",
    "growth (%)": 88.3
  },
  {
    "compound": "C=C1CCC2C3(C)COC(C)(C)OC3CCC2(C)C1C/C=C1/C(=O)OCC1Oc1ccccc1OC (stereo not given)",
    "growth (%)": 90.5
  },
  {
    "compound": "Clc1cc(Cl)c2nc(-c3ccc(-c4ccc(/C=N/NC5=NCCN5)cc4)s3)cn2c1",
    "growth (%)": 76.5
  },
  {
    "compound": "COc1ccc(CN2CCc3c(Sc4ccccc4)nc(N)nc3C2=O)c(OC)c1",
    "growth (%)": 52.1
  },
  {
    "compound": "O=C(NNC(=O)N1c2ccccc2C=Cc2ccccc21)c1ccccc1",
    "growth (%)": 98.5
  },
  {
    "compound": "O=[N+]([O-])c1cccc(-c2nc3sccn3c2-c2ccnc(NCCCNS(=O)(=O)c3ccc(C(F)(F)F)cc3)n2)c1",
    "growth (%)": 12
  },
  {
    "compound": "COc1cc2c(cc1OCCCCCn1c3ccccc3c3ccccc31)N=C[C@@H]1CCCN1C2=O",
    "growth (%)": -41.8
  },
  {
    "compound": "Cc1ccc2nc(-c3cc4c([nH]c5ccccc54)c(-c4ccc(F)c(F)c4)n3)[nH]c2c1",
    "growth (%)": 72.6
  }
]

====

# Test system: SF-539 CNS
# assayMethodText: NCI-60 one-dose screen, 48 h
# settings: 10 µM unless noted
# Protocol: Cells are grown in 96 well plates and exposed to the test compound for 48 hours. Compounds are tested at a single concentration, which is 10^-5 M for most compounds. The reported endpoint is percent growth (GI% or GIPRCNT), where numbers from 0 - 100% represent growth inhibition, and numbers from -100% - 0 represent cell death. For example, a value of 40 represents 60% growth inhibition. A value of 0 means no net growth occurred over the course of the experiment. […]
About 83,000 compounds went through this panel and 20% of them were active in at least one assay; those are over-represented in the sample as a whole. The source made the active and inactive calls. The calls were made as follows: active = growth percent below 10; inactive = the rest.
Labels: active, inactive

[
  {
    "molecule": "COc1ccc(-c2nc(/C=C3/C(=O)Nc4ccc(F)cc43)c3ccccn23)cc1",
    "labelValue": "inactive"
  },
  {
    "molecule": "CC(C)CSc1nc(NN)c(C#N)c(-c2ccccc2)n1",
    "labelValue": "inactive"
  },
  {
    "molecule": "O=C1/C(=C/c2ccc([N+](=O)[O-])cc2)CN(C(=O)CCN2CCC(=NO)CC2)C/C1=C\\c1ccc([N+](=O)[O-])cc1",
    "labelValue": "active"
  },
  {
    "molecule": "O=[N+]([O-])c1cccc(-c2nc3sccn3c2-c2ccnc(NCCCNS(=O)(=O)c3ccc(C(F)(F)F)cc3)n2)c1",
    "labelValue": "inactive"
  },
  {
    "molecule": "O=C1c2c(Cl)c(Cl)c(Cl)c(Cl)c2C(=O)C2(Cl)CC=CCC12Cl (stereo unspecified)",
    "labelValue": "inactive"
  },
  {
    "molecule": "CC(=O)Nc1nc(N)nc(NC(C)=O)c1N=O",
    "labelValue": "inactive"
  },
  {
    "molecule": "CN1C=CN(Cc2ccc(-c3ccccn3)nc2)[CH-]1.CN1C=CN(Cc2ccc(-c3ccccn3)nc2)[CH-]1.[Au+3]",
    "labelValue": "inactive"
  },
  {
    "molecule": "Cc1nc2ncccc2nc1Nc1ccc(S(=O)(=O)Nc2ccccn2)cc1",
    "labelValue": "inactive"
  },
  {
    "molecule": "N/C(=N\\C(N)=N\\c1nc2ccccc2s1)c1ccncc1",
    "labelValue": "inactive"
  },
  {
    "molecule": "C=C(C)[C@@H]1C[C@@H]2Cc3cc(F)ccc3N1O2",
    "labelValue": "inactive"
  },
  {
    "molecule": "Clc1ccc2c(NC3CCC(NC4CCCCC4)CC3)ccnc2c1 (stereo unspecified)",
    "labelValue": "active"
  },
  {
    "molecule": "CCCCN(CCCC)C(=N)c1ccnc2ccccc12",
    "labelValue": "inactive"
  },
  {
    "molecule": "COc1ccc(C(=O)N2NC(=O)/C(=C/c3cn(-c4ccccc4)nc3-c3ccccc3)N=C2c2ccccc2)cc1",
    "labelValue": "inactive"
  },
  {
    "molecule": "NC(=S)N/N=C1\\CCCC(C(F)(F)F)C1 (stereo unspecified)",
    "labelValue": "inactive"
  },
  {
    "molecule": "N=C(N)c1ccc(-c2ccc(-c3cncc4ccccc34)s2)cc1F",
    "labelValue": "active"
  },
  {
    "molecule": "COc1ccc(C2C=C(c3ccc(N)cc3)N=C3SC=CN32)cc1OC (stereo unspecified)",
    "labelValue": "inactive"
  },
  {
    "molecule": "CCCCCCCCCCCCNC(=O)[C@H]1CSC(c2ccsc2)N1 (stereo partly specified)",
    "labelValue": "active"
  },
  {
    "molecule": "COc1cc(-c2nn(-c3cccc(NC(=O)c4cccc(C(F)(F)F)c4)c3)cc2-c2ccncc2)ccc1Cl",
    "labelValue": "active"
  },
  {
    "molecule": "O=C1c2ccccc2-c2ccccc2C1(Cl)Cl",
    "labelValue": "active"
  },
  {
    "molecule": "C=C(C)[C@@H]1C[C@H](O)Cc2cc(F)ccc2N1",
    "labelValue": "inactive"
  },
  {
    "molecule": "COc1ccc(-n2c(=O)sc3c(Cl)nc(C)nc32)c(OC)c1",
    "labelValue": "inactive"
  }
]
